experiment: Ratio of drug level in Sprague-Dawley rat brain to plasma at 10 mg/kg, po administered as single dose
Assay type: ADME, organism-based
experimental.conditions: read-out: BPR
Parameter Kp: see the listing below.
Give your answer as a number; write no unit.

1) CCC(CC)n1cnc2c(-c3cnc(N)cn3)nc(N3CC4CCC(C3)O4)nc21    0.178

Incoming: Write down Kp measured for item Nc1cc(C(F)F)c(-c2nc(N3C4CCC3COC4)nc(N3C4CCC3COC4)n2)cn1
Outgoing: 1

---

study.target: Phosphatidylinositol 3-kinase catalytic subunit type 3 (Homo sapiens)
Sequence (Q8NEB9 whole entry, the tested form may be a part): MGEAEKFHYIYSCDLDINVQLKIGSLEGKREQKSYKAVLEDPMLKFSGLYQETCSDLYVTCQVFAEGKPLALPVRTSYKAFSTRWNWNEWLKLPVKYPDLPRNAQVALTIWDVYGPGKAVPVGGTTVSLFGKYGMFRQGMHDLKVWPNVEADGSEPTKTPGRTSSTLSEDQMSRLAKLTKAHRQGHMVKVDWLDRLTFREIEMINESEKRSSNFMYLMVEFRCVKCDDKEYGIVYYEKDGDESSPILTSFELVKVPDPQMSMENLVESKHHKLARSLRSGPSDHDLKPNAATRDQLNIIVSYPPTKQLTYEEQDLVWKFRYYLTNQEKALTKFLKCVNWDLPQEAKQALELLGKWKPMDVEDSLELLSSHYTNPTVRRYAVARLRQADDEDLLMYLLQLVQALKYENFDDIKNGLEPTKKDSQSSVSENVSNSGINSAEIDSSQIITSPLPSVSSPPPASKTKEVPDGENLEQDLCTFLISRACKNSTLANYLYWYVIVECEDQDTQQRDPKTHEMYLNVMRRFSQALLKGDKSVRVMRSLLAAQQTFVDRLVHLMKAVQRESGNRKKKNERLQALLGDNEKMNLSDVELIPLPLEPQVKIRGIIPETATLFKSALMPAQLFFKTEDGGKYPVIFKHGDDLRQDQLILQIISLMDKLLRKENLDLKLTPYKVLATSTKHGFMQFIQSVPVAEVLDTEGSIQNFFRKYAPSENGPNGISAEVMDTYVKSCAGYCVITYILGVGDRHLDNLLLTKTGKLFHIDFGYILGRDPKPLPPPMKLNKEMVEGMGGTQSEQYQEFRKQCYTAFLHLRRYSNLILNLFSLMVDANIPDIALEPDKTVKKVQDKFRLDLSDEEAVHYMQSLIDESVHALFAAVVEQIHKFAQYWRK
experiment: Inhibition of human VPS34 (282 to 879 residues) expressed in mammalian expression system by KINOMEscan assay
Parameter Kd: see the listing below.

1. CC(C)n1nc(-c2ccc3oc(N)nc3c2)c2c(N)ncnc21    8.2 µM
2. Nc1cc(C(F)F)c(-c2nc(N3C4CCC3COC4)nc(N3C4CCC3COC4)n2)cn1    2.75 µM
3. CCC(CC)n1cnc2c(-c3cnc(N)cn3)nc(N3CC4CCC(C3)O4)nc21    8.3 µM
4. CNC(=O)c1cccc(-c2ccc3c(N4CCOC[C@@H]4C)nc(N4CCOC[C@@H]4C)nc3n2)c1    23 µM

Now turn to the next molecule.
Incoming: Write down Kd measured for item CO[C@H]1CC[C@H](N2C(=O)CNc3ncc(-c4ccc(C(C)(C)O)nc4)nc32)CC1
Outgoing: 2.5 µM

---

experiment: Toxicity in rat after 14 days
Assay type: organism-based
experimental.conditions: in vivo
experimental.readout: MTD at 336 h (mg/kg)
Report only the number, with the unit mg/kg understood.

Incoming: Write down MTD at 336 h measured for item Nc1cc(C(F)F)c(-c2nc(N3C4CCC3COC4)nc(N3C4CCC3COC4)n2)cn1
Outgoing: 30

---

experiment: Cmax in C57BL/6JRj mouse brain at 50 mg/kg, po administered as single dose
Assay type: ADME, organism-based
Parameters: dose 50 mg/kg, route oral
experimental.readout: Cmax (ng/g)
Report only the number, with the unit ng/g understood.

Incoming: Write down Cmax measured for item Nc1cc(C(F)F)c(-c2nc(N3C4CCC3COC4)nc(N3C4CCC3COC4)n2)cn1
Outgoing: 7710

---

experiment: Clearance in rat hepatocytes assessed per million cells
Type: ADME, cell-based, Hepatocyte
experimental.conditions: read-out: CLH
experimental.readout: hepatocyte CLint (µL/min/1e6 cells)
Report only the number, with the unit µL/min/1e6 cells understood.

Incoming: Write down hepatocyte CLint measured for item Nc1cc(C(F)F)c(-c2nc(N3C4CCC3COC4)nc(N3C4CCC3COC4)n2)cn1
Outgoing: 1.85

---

study.target: Phosphatidylinositol 4,5-bisphosphate 3-kinase catalytic subunit alpha isoform (Homo sapiens, UniProt P42336)
Sequence (P42336 whole entry, canonical isoform): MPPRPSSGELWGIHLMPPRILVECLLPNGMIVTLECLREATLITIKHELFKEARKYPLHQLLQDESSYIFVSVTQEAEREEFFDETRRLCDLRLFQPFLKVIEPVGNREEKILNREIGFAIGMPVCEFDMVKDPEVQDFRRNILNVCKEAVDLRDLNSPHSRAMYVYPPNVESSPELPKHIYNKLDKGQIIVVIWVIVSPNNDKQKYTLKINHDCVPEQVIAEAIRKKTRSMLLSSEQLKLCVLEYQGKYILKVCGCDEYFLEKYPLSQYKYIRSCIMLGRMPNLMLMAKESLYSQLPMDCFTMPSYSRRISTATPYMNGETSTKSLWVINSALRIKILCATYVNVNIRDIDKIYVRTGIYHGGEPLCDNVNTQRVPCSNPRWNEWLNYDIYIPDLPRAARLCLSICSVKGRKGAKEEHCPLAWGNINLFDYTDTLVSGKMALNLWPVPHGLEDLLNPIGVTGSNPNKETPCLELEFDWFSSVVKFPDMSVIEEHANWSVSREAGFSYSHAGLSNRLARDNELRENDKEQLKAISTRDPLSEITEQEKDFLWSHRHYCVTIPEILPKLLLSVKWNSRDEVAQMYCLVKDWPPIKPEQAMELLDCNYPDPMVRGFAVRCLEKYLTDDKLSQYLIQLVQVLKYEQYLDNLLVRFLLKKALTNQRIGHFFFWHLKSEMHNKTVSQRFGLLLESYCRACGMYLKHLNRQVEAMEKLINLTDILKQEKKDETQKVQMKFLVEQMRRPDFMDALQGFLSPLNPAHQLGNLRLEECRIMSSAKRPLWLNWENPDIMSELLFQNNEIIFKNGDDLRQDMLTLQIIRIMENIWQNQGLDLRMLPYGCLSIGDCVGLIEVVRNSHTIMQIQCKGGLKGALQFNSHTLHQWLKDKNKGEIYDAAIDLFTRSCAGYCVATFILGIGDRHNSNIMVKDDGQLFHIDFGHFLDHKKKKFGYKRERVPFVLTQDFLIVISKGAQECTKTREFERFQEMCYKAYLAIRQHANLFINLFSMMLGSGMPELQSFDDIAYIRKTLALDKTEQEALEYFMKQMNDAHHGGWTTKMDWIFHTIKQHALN
Parameter pKd: see the listing below.
Kindly note that pKd refers to -log10 of the concentration in mol/L and answer with the value alone.

1) CCC(CC)n1cnc2c(-c3cnc(N)cn3)nc(N3CC4CCC(C3)O4)nc21    5.57
2) CNC(=O)c1cccc(-c2ccc3c(N4CCOC[C@@H]4C)nc(N4CCOC[C@@H]4C)nc3n2)c1    7.48

Now turn to the next compound.
Incoming: Write down pKd measured for item Nc1cc(C(F)F)c(-c2nc(N3C4CCC3COC4)nc(N3C4CCC3COC4)n2)cn1
Outgoing: 6.00

---

Parameter pKi: see the listing below.
study.target: Phosphatidylinositol 4,5-bisphosphate 3-kinase catalytic subunit alpha isoform (Homo sapiens)
Kindly note that pKi refers to -log10 of the concentration in mol/L and answer with the value alone.

1. Nc1cc(C(F)(F)F)c(-c2cc(N3C4CCC3COC4)nc(N3C4CCC3COC4)n2)cn1    5.66
2. C[C@H]1COC[C@H](C)N1c1nc(-c2cnc(N)cc2C(F)F)nc(N2[C@@H](C)COC[C@@H]2C)n1    7.19

Now turn to the next molecule.
Incoming: Write down pKi measured for item Nc1cc(C(F)F)c(-c2nc(N3CCOCC3)nc(N3C4CCC3COC4)n2)cn1
Outgoing: 7.59

---

experiment: Lipophilicity, log D of the compound at pH 7.4
Assay type: physicochemical
experimental.conditions: buffer
experimental.readout: logD
Give your answer as a number; write no unit.

Incoming: Write down logD measured for item Nc1cc(C(F)F)c(-c2nc(N3C4CCC3COC4)nc(N3C4CCC3COC4)n2)cn1
Outgoing: 3.47

---

experiment: Cmax in Sprague-Dawley rat brain at 10 mg/kg, po administered as single dose after 30 mins
Format: ADME, organism-based
Set-up: dose 10 mg/kg, route oral
experimental.readout: Cmax

Incoming: Write down Cmax measured for item Nc1cc(C(F)F)c(-c2nc(N3C4CCC3COC4)nc(N3C4CCC3COC4)n2)cn1
Outgoing: 1310 ng/g

---

experiment: Clearance in mouse hepatocytes assessed per million cells
Format: ADME, cell-based, Hepatocyte
experimental.conditions: read-out: CLH
experimental.readout: hepatocyte CLint (µL/min/1e6 cells)
Report only the number, with the unit µL/min/1e6 cells understood.

Incoming: Write down hepatocyte CLint measured for item Nc1cc(C(F)F)c(-c2nc(N3C4CCC3COC4)nc(N3C4CCC3COC4)n2)cn1
Outgoing: 2.67

---

study.target: Phosphatidylinositol 4-kinase beta (Homo sapiens)
Sequence (Q9UBF8 whole entry): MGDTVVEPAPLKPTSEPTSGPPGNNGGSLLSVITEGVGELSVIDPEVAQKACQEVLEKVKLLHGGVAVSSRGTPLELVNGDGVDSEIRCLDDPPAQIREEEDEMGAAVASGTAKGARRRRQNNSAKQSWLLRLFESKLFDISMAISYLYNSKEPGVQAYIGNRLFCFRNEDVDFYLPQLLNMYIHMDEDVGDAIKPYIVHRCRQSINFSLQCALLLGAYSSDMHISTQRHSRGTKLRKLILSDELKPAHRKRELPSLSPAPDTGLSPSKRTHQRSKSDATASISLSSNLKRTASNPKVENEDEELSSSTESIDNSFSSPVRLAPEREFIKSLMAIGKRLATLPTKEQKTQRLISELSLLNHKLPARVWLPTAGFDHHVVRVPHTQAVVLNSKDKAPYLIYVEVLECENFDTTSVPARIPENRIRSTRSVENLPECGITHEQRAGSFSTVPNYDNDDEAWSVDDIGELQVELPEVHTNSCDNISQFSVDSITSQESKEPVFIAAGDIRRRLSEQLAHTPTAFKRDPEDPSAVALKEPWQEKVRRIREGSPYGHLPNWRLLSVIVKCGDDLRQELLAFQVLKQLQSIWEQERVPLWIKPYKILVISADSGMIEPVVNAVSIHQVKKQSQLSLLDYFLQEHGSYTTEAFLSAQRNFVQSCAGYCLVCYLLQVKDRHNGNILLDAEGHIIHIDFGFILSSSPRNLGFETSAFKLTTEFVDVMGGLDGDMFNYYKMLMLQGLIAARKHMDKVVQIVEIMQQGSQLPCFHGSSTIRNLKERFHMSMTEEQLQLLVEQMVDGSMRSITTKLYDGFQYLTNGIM
pKd: −log10 of the molar value.
experimental.readout: pKd

Incoming: // fetch pKd for Nc1cc(C(F)F)c(-c2nc(N3C4CCC3COC4)nc(N3C4CCC3COC4)n2)cn1 ; system: Phosphatidylinositol 4-kinase beta (Homo sapiens)
Outgoing: < 4.52

---

experiment: Thermodynamic solubility of the compound in FeSSIF
Format: physicochemical
experimental.conditions: read-out: Therm_solubility
experimental.readout: solubility thermodynamic
Give the figure together with its unit, number first.

Incoming: Write down solubility thermodynamic measured for item Nc1cc(C(F)F)c(-c2nc(N3C4CCC3COC4)nc(N3C4CCC3COC4)n2)cn1
Outgoing: 335 µM

---

experiment: Unbound fraction in rat brain
Format: ADME, tissue-based
experimental.readout: fraction unbound
Give your answer as a number; write no unit.

Incoming: Write down fraction unbound measured for item Nc1cc(C(F)F)c(-c2nc(N3C4CCC3COC4)nc(N3C4CCC3COC4)n2)cn1
Outgoing: 0.03

---

Parameter Ki: see the listing below.
study.target: Phosphatidylinositol 4,5-bisphosphate 3-kinase catalytic subunit alpha isoform (Homo sapiens, UniProt P42336)
Report only the number, with the unit µM understood.

1. C[C@@H]1COC[C@H](C)N1c1nc(-c2cnc(N)cc2C(F)F)nc(N2[C@H](C)COC[C@@H]2C)n1    0.141

Incoming: Write down Ki measured for item C[C@@H]1CN(c2nc(-c3cnc(N)cc3C(F)F)nc(N3C[C@@H](C)O[C@@H](C)C3)n2)C[C@H](C)O1
Outgoing: 15.4

Incoming: Write down Ki measured for item Nc1cc(C(F)F)c(-c2nc(N3CC4CCC(C3)O4)nc(N3CC4CCC(C3)O4)n2)cn1
Outgoing: 1.3

Incoming: Write down Ki measured for item Nc1cc(C(F)(F)F)c(-c2nc(N3C4CCC3COC4)cc(N3C4CCC3COC4)n2)cn1
Outgoing: 5.67

---

Observed pKi for Serine/threonine-protein kinase mTOR (Homo sapiens, UniProt P42345), reported per entry below.
Kindly note that pKi refers to -log10 of the concentration in mol/L and answer with the value alone.

Below are worked cases with known answers.
1. Nc1cc(C(F)F)c(-c2nc(N3C[C@H]4C[C@@H]3CO4)nc(N3C[C@H]4C[C@@H]3CO4)n2)cn1    6.51
2. Nc1cc(C(F)F)c(-c2cc(N3C4CCC3COC4)nc(N3C4CCC3COC4)n2)cn1    7.92
3. Nc1cc(CO)c(-c2nc(N3CCOCC3)nc(N3CCOCC3)n2)cn1    7.13
4. Nc1cc(C(F)F)c(-c2nc(N3CCOCC3)nc(N3C4CCC3COC4)n2)cn1    7.95
5. Nc1cc(C(F)F)c(-c2nc(N3C4COCC3COC4)nc(N3C4COCC3COC4)n2)cn1    7.51
6. C[C@@H]1COCCN1c1nc(-c2cnc(N)cc2C(F)F)nc(N2CCOC[C@H]2C)n1    7.90

Incoming: // fetch pKi for Nc1cc(C(F)(F)F)c(-c2nc(N3C4CCC3COC4)cc(N3C4CCC3COC4)n2)cn1 ; system: Serine/threonine-protein kinase mTOR (Homo sapiens, UniProt P42345)
Outgoing: 6.36

Incoming: // fetch pKi for Nc1cc(C(F)F)c(-c2nc(N3CCOCC34CCC4)nc(N3CCOCC34CCC4)n2)cn1 ; system: Serine/threonine-protein kinase mTOR (Homo sapiens, UniProt P42345)
Outgoing: 7.48

Incoming: // fetch pKi for COC(OC)c1cc(N)ncc1-c1nc(N2CCOCC2)nc(N2CCOCC2)n1 ; system: Serine/threonine-protein kinase mTOR (Homo sapiens, UniProt P42345)
Outgoing: 6.32

Incoming: // fetch pKi for Nc1cc(C(F)F)c(-c2nc(N3C4CCC3COC4)nc(N3C4CCC3COC4)n2)cn1 ; system: Serine/threonine-protein kinase mTOR (Homo sapiens, UniProt P42345)
Outgoing: 7.97
